assay: protein stability index of a GFP-peptide fusion (yeast GPS) (PSI 1-4); higher = more stable; sorted into four equal gates, so the index is relative within each strain; details: ubr1∆
# protein stability index per entry

Known protein stability index results, listed for orientation:
TDQSTEEEKSVDASPND [CSL4] :: 3.06
LEKCEAEFKKRKIEAET [YCS4] :: 2.98
RYSNLVCKKADVDLHKR [RPS18A] :: 2.95

Continue with the sequence presented below.
Query :: Give the reported protein stability index for this sequence. AAGKRISHIEKRIESLQ [SMC1]
Result :: 3.08

----------
assay: protein stability index of a GFP-peptide fusion (yeast GPS) (PSI 1-4); higher = more stable; sorted into four equal gates, so the index is relative within each strain; settings: pdr5∆
MEASUREMENT_LABEL: protein stability index
Give your answer as a number; write no unit.

TPGEVASKAIVQMAKIL [MCD1] :: 3

Query :: Identify measured protein stability index associated with FTYNKFLLNQNKQLSQS [YIL149C/MLP2]
Result :: 2.96

Query :: Answer with the recorded protein stability index of KLSKEERAARVAAKIAA [RPL5] only.
Result :: 2.93

Query :: For the sequence FPGKPVDVQAPTDDKTL [YOR098C/NUP1] , report protein stability index.
Result :: 3.02

----------
assay: protein stability index of a GFP-peptide fusion (yeast GPS) (PSI 1-4); higher = more stable; sorted into four equal gates, so the index is relative within each strain; conditions: doa10∆
protein stability index of 3 or higher: y. Under 3: n.

ITFLQTLYIGNTANGRP [ECM29] :: n
PEQYSDILLNERVWNIC [AAR2] :: y
LVDKRIDMLPMLLGTDL [DIS3] :: n

Query :: API: above_or_equal(metric=protein stability index, cutoff=3) for item QGMEGTVDLALFGSPPF [YMR129W/POM152]
Result :: y

----------
test: protein stability index of a GFP-peptide fusion (yeast GPS) (PSI 1-4); higher = more stable; sorted into four equal gates, so the index is relative within each strain; conditions: san1∆
Note to self: values exactly at 3 are MET. So protein stability index at or above 3 is MET, below is NOT MET.

Example cases with answers are listed next.
SVEWMKVSPSMCGVIVK [SIN4] :: NOT MET
EWKSNHKKKRSNAAGAD [SRB8] :: NOT MET
MVAATKRRKTHIHKHVK [RET1] :: NOT MET
SSISVMGENEKPDVTYA [RPT3] :: MET
YKTSKAAQDVWNRADNH [FAS1] :: NOT MET

Query :: Dear colleague, could you confirm whether TTTMLQLFSTFDRLNGN [SSN2] has protein stability index at or above 3?
Result :: MET

Query :: For this sequence, is measured protein stability index 3 or higher? SVANTPSEIPDAHKAEQ [SWI3]
Result :: MET

Query :: Has YENSISKDLRSVWKPIA [IRR1] a recorded protein stability index greater than or equal to 3?
Result :: NOT MET

Query :: Hello, I need to know if DLYEQIGIDPPRGVLLY [RPT3] has measured protein stability index not below 3. Thanks!
Result :: NOT MET

Query :: API: above_or_equal(metric=protein stability index, cutoff=3) for item ISFRSNLLKNFISSNDA [SNF6]
Result :: NOT MET

Query :: Check this sequence for protein stability index at or above 3: FSPDGHIFQVEYALEAV [PRE6]
Result :: MET

Query :: Could you tell me if the measured protein stability index of SDLINKDLVKNNVSFNA [FAS1] reaches 3 or more?
Result :: NOT MET

Query :: Tell me whether protein stability index is at least 3 here: LQPFWFRVNNASINTSA [ECM29]
Result :: NOT MET

Query :: Kindly determine if protein stability index recorded for KNVETLEEKILAKKTHK [SMC4] is above or exactly 3.
Result :: NOT MET

----------
test: protein stability index of a GFP-peptide fusion (yeast GPS) (PSI 1-4); higher = more stable; sorted into four equal gates, so the index is relative within each strain; conditions: pdr5∆
Listed below: protein stability index values for each entry.
Please give only the number in your answer, with no unit.

HDLLQIIHFHSHPEKRM [SSN3] :: 2.71
ASELDESKDSIQDLIVK [SMC3] :: 3.04
STKSNKTRNPLTHSTPK [RPL8A] :: 1.95

Read the next record carefully.
Query :: Read off the recorded protein stability index for MNNQPQGTNSVPNSIGN [SNF5]
Result :: 3.1

----------
assay: protein stability index of a GFP-peptide fusion (yeast GPS) (PSI 1-4); higher = more stable; sorted into four equal gates, so the index is relative within each strain; settings: doa10∆
MEASUREMENT_LABEL: protein stability index
Response field accepts a number only; no unit should be typed.

Query :: Please look at this sequence and report its protein stability index: ISFRSNLLKNFISSNDA [SNF6]
Result :: 2.77

Query :: Return value of protein stability index for input TATASLGVIHKGNLLEG [RPN2] , no commentary.
Result :: 2.96

----------
assay: protein stability index of a GFP-peptide fusion (yeast GPS) (PSI 1-4); higher = more stable; sorted into four equal gates, so the index is relative within each strain; conditions: ubr1∆
Measured protein stability index of individual entries

Reference set, count: 5
CRELHNKHLTTLVEIFL [SSN3] :: 1.7
INPESREIVMPAHTKYM [ITC1] :: 2.18
SVANTPSEIPDAHKAEQ [SWI3] :: 3.03
QLNCIDTQFTKLLDDNP [SRB8] :: 2.9
STSLGIPDFRSSEGFYS [SIR2] :: 3.36

Query :: Quickly give me recorded protein stability index for TAQKYPIYTGDGWVKLT [YMR153W/NUP53]
Result :: 1.21

Query :: Tell me its protein stability index given FFLSIYFFYASRPEYSC [YJL039C/NUP192] as the entry.
Result :: 1.38

Query :: Fill in protein stability index for record VLDVDPKYAKQKDKSDT [ISW2]
Result :: 3.03

Query :: Tell us which protein stability index value is on record for FMEIVLEYNVALNDVYL [YML031W/NDC1]
Result :: 1.66

----------
experiment: protein stability index of a GFP-peptide fusion (yeast GPS) (PSI 1-4); higher = more stable; sorted into four equal gates, so the index is relative within each strain; conditions: pdr5∆
Think of 3 as a floor: if protein stability index stands on it or above, it is Met; beneath it, Not met.

Recorded results for 5 sequences are shown here.
QTQAIAQQQQLSNYPQQ [YGR119C/NUP57] :: Met
ENENILIKAKNFLVFQG [SMC1] :: Not met
CFICLLHLANEHGLQIT [BRN1] :: Not met
NSLAVRGKDCTVVISQK [SCL1] :: Not met
MSDVEEVVEVQEETVVE [RPS12] :: Met

Query :: Is protein stability index at least 3? Consider PNVCNMKQYRDFLGVAS [PRP28]
Result :: Not met

----------
assay: protein stability index of a GFP-peptide fusion (yeast GPS) (PSI 1-4); higher = more stable; sorted into four equal gates, so the index is relative within each strain; conditions: pdr5∆
protein stability index overview
Reply with the value as a number alone.

SKTENVRRLEAQRNALN [RPT6] :: 2.91

Here's the next entry for you.
Query :: Note down protein stability index recorded for VTLFQMAILLLYNDADV [CDC53]
Result :: 1.79

----------
assay: protein stability index of a GFP-peptide fusion (yeast GPS) (PSI 1-4); higher = more stable; sorted into four equal gates, so the index is relative within each strain; settings: san1∆
MEASUREMENT_LABEL: protein stability index
Write the value as a bare number.

STIPTRENGKGGQIAHI [ROX3] :: 2.98

Query :: Fill in protein stability index for record TQTESKKEENETISNVA [SNF2]
Result :: 2.98

Query :: Report measured protein stability index; entry is YVDEQSKNELKKAFTSY [RPS16A]
Result :: 3.07

Query :: For the sequence SFLDPLNYGNICEPKET [YJL039C/NUP192] , report protein stability index.
Result :: 3.01

----------
test: protein stability index of a GFP-peptide fusion (yeast GPS) (PSI 1-4); higher = more stable; sorted into four equal gates, so the index is relative within each strain; conditions: san1∆
Each entry below carries its recorded protein stability index.
Output spec: single numeric token, no unit.

RLAEFKRRKLDLNNAVQ [SMC4] :: 2.98
RTLRRKGDINPEVSMIR [RPB2] :: 2.79
DWQKEDGIFSSKTDNIE [YMR153W/NUP53] :: 3.22
MSLINDAMVTRTPVIIS [SMD2] :: 1.47
ENENILIKAKNFLVFQG [SMC1] :: 1.96
YGLGLIYAGFGRDTTDY [RPN2] :: 2.95
INLRKVAEKMNGCSGAD [RPT6] :: 2.38
KLSDNISICMILCGIQE [YDL116W/NUP84] :: 2.62

Query :: Input TANALPLPAVFSAPIRP [RPL4A] , output reported protein stability index.
Result :: 1.87

Query :: Tell me protein stability index reported for TSMNGVHNTVAAGNASS [SNF5]
Result :: 2.76

Reference source for all entries: the supplement of paper PMC9732359
